assay: Human HepG2 cell viability assay in 384 well format; type: toxicity, cell-based; parameters: dose 125 nL, time 70.5 hour; concentration not given beside the values; conditions: HepG2 cells, read-out: Inhibition
property.label: cytotoxicity at 70.5 h (%)
Your answer should be a plain number; it is taken to be in %.

# example entries with known answers
Cc1c(C(=O)NCC(C)C)nnn1-c1cccc2c1CCN(C)C2 : 1.85
COc1cccc(OC)c1C(=O)N1CCN(c2ccccc2F)CC1 : 39
CN1CC(=O)N(c2cccnc2)CC12CCN(C(=O)c1cccnc1)C2 (centres undefined) : 2.34
Cc1noc(C)c1CN1CC[C@@H]2O[C@@H](COCC(C)C)CC[C@@H]21 : 3.11
CCc1ncc(C(=O)NCCNC(=O)Cc2ccc(F)cc2)s1 : -11.7

Request: May I ask what cytotoxicity at 70.5 h has been recorded for `c1cnc(-c2nn3c(CN4CCOCC4)nnc3s2)cn1` ?
Result: -10.2

Request: May I ask what cytotoxicity at 70.5 h has been recorded for O=S(=O)(CC1CCCCO1)Nc1cnn(CC(F)F)c1 (centres undefined) ?
Result: -7.78

Request: May I ask what cytotoxicity at 70.5 h has been recorded for Cc1ccsc1C(=O)N1CCC2(CC(N(C)c3ccncn3)C2)C1 (centres undefined) ?
Result: -4.77

Request: May I ask what cytotoxicity at 70.5 h has been recorded for Cc1nc(C)c(C(=O)N2CCCC(n3ccnc3C)C2)s1 (centres undefined) ?
Result: -3.06

Request: May I ask what cytotoxicity at 70.5 h has been recorded for Cc1ccc(CNC(=O)CN2CCCC(Cn3cncn3)C2)cc1 (centres undefined) ?
Result: -2.99

Request: May I ask what cytotoxicity at 70.5 h has been recorded for `COc1ccc(CN2CCO[C@H]3[C@H](OCc4ccncc4)CC[C@@H]32)cc1` ?
Result: 58.1

Request: May I ask what cytotoxicity at 70.5 h has been recorded for `O=C(Cn1nc(Br)nc1Br)N1CCCCC1` ?
Result: -3.74

###

assay: Human HepG2 cell viability assay in 384 well format; assay type: toxicity, cell-based; set-up: dose 125 nL, time 70.5 hour; concentration not given beside the values; conditions: HepG2 cells, read-out: Inhibition
property.label: cytotoxicity at 70.5 h (%)
Your answer should be a plain number; it is taken to be in %.

# example entries with known answers
Cc1ccc(CN2CCC[C@@H]3CN(C(=O)c4ccco4)C[C@@H]32)s1 : -11
Cc1nc(N)nc(C)c1CC(=O)N1CCCN(CC2CC2)C(C(C)C)C1 (stereo unspecified) : -8.22
Cc1ccc(O)c(C(=O)N2CCC3(CCCNC3)C2)c1 (stereo unspecified) : -7.79
CNC(=O)CN(C(=O)c1ccc(SC)o1)c1cccc(F)c1 : -0.365
CCC(CNC(=O)c1c(C)nn(C)c1OC)Oc1ccccc1 (stereo unspecified) : -7.65
O=C(O)c1cccnc1CN1CCCC1CCc1ccccc1 (stereo unspecified) : -14.9
CC(=O)Nc1nc(C(=O)NCc2ccc(N3CCOC(C)C3)nc2)cs1 (stereo unspecified) : -7.71
Cc1cc(CN[C@@H](Cc2ccccc2)C(N)=O)c(C)s1 : -14.1
c1coc(-c2noc(CN3CCCCC3Cn3cncn3)n2)c1 (stereo unspecified) : 5.99
O=C(NCCN1CCCCC1)c1ccn(-c2ccccc2)n1 : 24.7

Consider the additional compound presented here.
Request: May I ask what cytotoxicity at 70.5 h has been recorded for `Cc1cccc(S(=O)(=O)N2Cc3c(CN(C)C)nn(C)c3C2)c1` ?
Result: 2.96

###

experiment: Human HepG2 cell viability assay in 384 well format; assay type: toxicity, cell-based; design: dose 125 nL, time 70.5 hour; concentration not given beside the values; conditions: HepG2 cells, read-out: Inhibition
Items are presented alongside their recorded cytotoxicity at 70.5 h.
Your answer should be a plain number; it is taken to be in %.

# example entries with known answers
Cc1nn(-c2ccccc2)nc1C(=O)NCC(c1ccco1)N(C)C (stereo not drawn) : -15.6
Cc1c(Cl)cccc1NC(=O)CN(Cc1cccnc1)C(C)C : 1.97
O=C1CC(N(C(=O)c2ccc(Cl)c(Cl)c2)C2CC2)C(=O)N1 (stereo not drawn) : -4.14

Request: May I ask what cytotoxicity at 70.5 h has been recorded for `CCc1ccc(CN2CC[C@@H]3CN(S(C)(=O)=O)CCO[C@@H]3C2)o1` ?
Result: -3.27

Request: May I ask what cytotoxicity at 70.5 h has been recorded for `CO[C@H]1CCN(Cc2c(C)noc2C)[C@@H]2CN(Cc3cccnc3)C[C@H]12` ?
Result: -7.23

Request: May I ask what cytotoxicity at 70.5 h has been recorded for `c1cc(-c2ccc(CN3CCC4(CCNCC4)CC3)s2)[nH]n1` ?
Result: -2.82

Request: May I ask what cytotoxicity at 70.5 h has been recorded for `C[C@H](O)CNc1cc(-c2ccccc2)ncn1` ?
Result: -0.249

Request: May I ask what cytotoxicity at 70.5 h has been recorded for Cc1ncsc1CNCC(C)c1nc2ccccc2o1 (stereo not drawn) ?
Result: -7.51

Request: May I ask what cytotoxicity at 70.5 h has been recorded for `Cc1cc(NC(=O)NCCCSc2nncn2C)no1` ?
Result: -11.7

###

Items are presented alongside their recorded cytotoxicity at 70.5 h.
experiment: Human HepG2 cell viability assay in 384 well format; type: toxicity, cell-based; set-up: dose 125 nL, time 70.5 hour; concentration not given beside the values; details: HepG2 cells, read-out: Inhibition
Quick note: number first, unit second.

# example entries with known answers
Cc1nc([C@H]2C[C@@H]3CCN(Cc4cnn(C)c4)C[C@H]3O2)sc1C : -1.71%
CC1CCN(Cc2c(C(C)C)[nH]c3ncccc23)CC1 : -8.35%
COCCNC(=O)Nc1cccc(COCCOC(C)C)c1 : -6.5%
O=C(O)C1(n2cccn2)CCN(c2nc(-c3ccccc3)no2)CC1 : 0.502%
CN(CC(N)=O)C(=O)C1Cc2cc(Cl)ccc2O1 (stereo not drawn) : -5.33%
O=C(NC1CCOCC1)c1cccc(C2CCCNC2)c1 (stereo not drawn) : -10.4%
Cc1cnccc1CN1Cc2ccccc2O[C@]2(CC[C@H](CO)CC2)C1 : 15.1%
Cc1ccc(N(C)[C@@H]2CC[C@@H]3CN(C(=O)C4CCOCC4)C[C@@H]32)nn1 : -6.01%
CC(CS(C)(=O)=O)NC(=O)N1CC2(CCCC2)c2ccccc21 (stereo not drawn) : -2.3%
CC1(Cc2cccnc2)NCCc2[nH]cnc21 (stereo not drawn) : 10.5%

Request: May I ask what cytotoxicity at 70.5 h has been recorded for `O=C(NCc1ccccn1)Nc1ccc2[nH]nnc2c1` ?
Result: -4.24%

Request: May I ask what cytotoxicity at 70.5 h has been recorded for `CCn1c(C)cc(C(=O)N2C[C@@H](C(=O)O)[C@H](c3ccccc3C)C2)c1C` ?
Result: -8.47%

Request: May I ask what cytotoxicity at 70.5 h has been recorded for CN(C)CC(=O)N1CCO[C@@H]2CC(COCc3ccncc3)C[C@H]21 (stereo partly drawn) ?
Result: -8%

###

assay: Human HepG2 cell viability assay in 384 well format; assay type: toxicity, cell-based; parameters: dose 125 nL, time 70.5 hour; concentration not given beside the values; conditions: HepG2 cells, read-out: Inhibition
property.label: cytotoxicity at 70.5 h (%)
Your answer should be a plain number; it is taken to be in %.

# example entries with known answers
O=C1N(CCc2ccccc2)CCCC12CCN(C(CO)CO)C2 (stereo unspecified) : -4.14
CS(=O)(=O)NCc1cc2n(n1)CCCN(Cc1nc3ccccc3[nH]1)C2 : -8.44

Request: May I ask what cytotoxicity at 70.5 h has been recorded for COc1c(C2CCCN2Cc2nc(C3CC3)no2)c(C)nn1C (stereo unspecified) ?
Result: 9.69

Request: May I ask what cytotoxicity at 70.5 h has been recorded for `Cn1cc(NC(=O)N2CCC(OCc3ccccc3)CC2)ccc1=O` ?
Result: -9.18

Request: May I ask what cytotoxicity at 70.5 h has been recorded for `CN(C)C[C@H]1C[C@H](CO)CN(C(=O)c2cc(S(N)(=O)=O)ccc2F)C1` ?
Result: -3.55

###

Items are presented alongside their recorded cytotoxicity at 70.5 h.
assay: Human HepG2 cell viability assay in 384 well format; assay type: toxicity, cell-based; design: dose 125 nL, time 70.5 hour; concentration not given beside the values; conditions: HepG2 cells, read-out: Inhibition
Your answer should be a plain number; it is taken to be in %.

# example entries with known answers
Cc1cnn(CC2CCCN2C(=O)Cc2ccc(C)nc2)c1 (stereo unspecified) : -7.79
Cc1noc(CCCC(=O)Nc2ncccc2Br)n1 : -7.59

Request: May I ask what cytotoxicity at 70.5 h has been recorded for `COc1ccccc1OCCCc1cccc(C#N)n1` ?
Result: -1.85

Request: May I ask what cytotoxicity at 70.5 h has been recorded for `CCN1CC2(CCC1=O)CCN(Cc1nncn1C(C)C)CC2` ?
Result: -5.12

Request: May I ask what cytotoxicity at 70.5 h has been recorded for `CN(C)C[C@H]1OC[C@@H]2CN(C(=O)NCc3cccc(F)c3)CC[C@@H]21` ?
Result: -5.06
